# Organism: Rattus norvegicus
# TEST_PROTOCOL: DrugMatrix - Regimen: Daily Repeat
# Type: toxicity, organism-based, Sprague-Dawley
# Parameters: regimen Daily Repeat, gender Male, age 6-8 weeks
# RUN_PARAMETERS: in vivo, po, 0 mg/kg, 120 h, tissue Plasma, route oral GAVAGE, dose level Control, time 5 day, […]
READOUT_NAME: GLUCOSE (mg/dL)
Numbers only; they are read as mg/dL.

According to the records, this molecule Cn1cnc([N+](=O)[O-])c1Sc1ncnc2nc[nH]c12 [AZATHIOPRINE] displays GLUCOSE of 171.33

The recorded GLUCOSE for CC(=O)[C@H]1CC[C@H]2[C@@H]3CCC4=CC(=O)CC[C@]4(C)[C@H]3CC[C@]12C [PROGESTERONE] is 182.83

GET /value?item= COC1=CC(=O)C[C@@H](C)[C@]12Oc1c(Cl)c(OC)cc(OC)c1C2=O [GRISEOFULVIN] &field=GLUCOSE returns 162.33

In plain terms, C=CCN [ALLYLAMINE] has a documented GLUCOSE of 156

Lab note: O=[N+]([O-])c1cc([As](=O)(O)O)ccc1O [ROXARSONE] gave GLUCOSE of 125.6

Lab book: GLUCOSE of COc1ccc2c(c1)c(CC(=O)OCC(=O)O)c(C)n2C(=O)c1ccc(Cl)cc1 [ACEMETACIN] noted as 182.33
